System: A431
Assay: LBPA endosome anti-LBPA integrated intensity (sum per cell), Z-score; higher = more LBPA staining
Details: compound concentration in added solution (µM; 5 µl added to 20 µl cells): 10; 18 h
Structures can show the parent of a compound that is named as a salt.
recordedEndpoint: LBPA endosome anti-LBPA integrated intensity (z-score)
Answer as a number with no unit attached.

[[record]]
compound = "CC(C)C[C@H]1C(=O)N2CCC[C@H]2[C@]2(O)O[C@](NC(=O)[C@@H]3C=C4c5cccc6[nH]c(Br)c(c56)C[C@H]4N(C)C3)(C(C)C)C(=O)N12 [Bromocryptine mesylate]"
recordednumber = 0.99

[[record]]
compound = "C#C[C@]1(O)CC[C@H]2[C@@H]3CCC4=CC(=O)CC[C@]4(C)[C@H]3CC[C@@]21C [Ethisterone]"
recordednumber = -0.369

[[record]]
compound = "C[N+]1(C)CCOC(O)(c2ccc(-c3ccc(C4(O)C[N+](C)(C)CCO4)cc3)cc2)C1 (centres undefined) [Hemicholinium bromide]"
recordednumber = -0.629

[[record]]
compound = "CO[C@]12C[C@@H](COC(=O)c3cncc(Br)c3)CN(C)[C@@H]1Cc1cn(C)c3cccc2c13 [Nicergoline]"
recordednumber = 3.54


Enquiry: Data request, read-out LBPA endosome anti-LBPA integrated intensity (z-score), for NCC(O)c1ccc(O)cc1 (racemic) [(+,-)-Octopamine hydrochloride]
Return: -0.262

Enquiry: Data request, read-out LBPA endosome anti-LBPA integrated intensity (z-score), for CCNC1(c2cccs2)CCCCC1=O (centres undefined) [Tiletamine hydrochloride]
Return: -0.499

Enquiry: Data request, read-out LBPA endosome anti-LBPA integrated intensity (z-score), for CC(C)(C)NCC(O)c1cc(Cl)c(N)c(Cl)c1 (centres undefined) [Clenbuterol hydrochloride]
Return: 0.0925

Enquiry: Data request, read-out LBPA endosome anti-LBPA integrated intensity (z-score), for CCOC(=O)c1cncn1[C@H](C)c1ccccc1 [Etomidate]
Return: -0.611

Enquiry: Data request, read-out LBPA endosome anti-LBPA integrated intensity (z-score), for CC(=O)O[C@H]1C[C@@H]2CC[C@@H]3[C@H](CC[C@@]4(C)[C@H]3C[C@H]([N+]3(C)CCCCC3)[C@@H]4OC(C)=O)[C@@]2(C)C[C@@H]1[N+]1(C)CCCCC1 [Pancuronium bromide]
Return: -0.551

Enquiry: Data request, read-out LBPA endosome anti-LBPA integrated intensity (z-score), for C[N+](C)(C)CCCCCCCCCC[N+](C)(C)C [Decamethonium bromide]
Return: -0.547

Enquiry: Data request, read-out LBPA endosome anti-LBPA integrated intensity (z-score), for C#CCN(C)[C@H](C)Cc1ccccc1 [Selegiline hydrochloride]
Return: -0.688

Enquiry: Data request, read-out LBPA endosome anti-LBPA integrated intensity (z-score), for CCCCCC[C@H]1C(=O)O[C@H](C)[C@H](NC(=O)c2cccc(NC=O)c2O)C(=O)O[C@@H](C)[C@@H]1OC(=O)CC(C)C [Antimycin A]
Return: -0.868

Enquiry: Data request, read-out LBPA endosome anti-LBPA integrated intensity (z-score), for NCCC(O)C(=O)NC1CC(N)C(OC2OC(CN)C(O)[C@H](O)[C@@H]2N)[C@H](OC2O[C@H](CO)[C@@H](O)[C@@H]2O)[C@@H]1O (some centres undefined) [Butirosin disulfate salt]
Return: -0.571

Enquiry: Data request, read-out LBPA endosome anti-LBPA integrated intensity (z-score), for C[C@@]12N[C@@H](Cc3ccccc31)c1ccccc12 [(-)-MK 801 hydrogen maleate]
Return: -0.405

Enquiry: Data request, read-out LBPA endosome anti-LBPA integrated intensity (z-score), for CN(C)C(=O)Oc1cc(OC(=O)N(C)C)cc(C(O)CNC(C)(C)C)c1 (centres undefined) [Bambuterol hydrochloride]
Return: -0.585

Enquiry: Data request, read-out LBPA endosome anti-LBPA integrated intensity (z-score), for CN(C)C(=O)Oc1cccc([N+](C)(C)C)c1 [Neostigmine bromide]
Return: -0.478

Enquiry: Data request, read-out LBPA endosome anti-LBPA integrated intensity (z-score), for CC(C)(C)NCC(O)c1ccccc1Cl (centres undefined) [Tulobuterol]
Return: -0.101

Enquiry: Data request, read-out LBPA endosome anti-LBPA integrated intensity (z-score), for NCCc1c[nH]c2ccc(O)cc12 [Serotonin hydrochloride]
Return: -0.716

Enquiry: Data request, read-out LBPA endosome anti-LBPA integrated intensity (z-score), for CN[C@@H]1[C@@H](O)[C@@H](O[C@@H]2[C@@H](O)[C@H](O[C@H]3O[C@H](CN)CC[C@H]3N)[C@@H](N)C[C@H]2N)OC[C@]1(C)O.CN[C@@H]1[C@@H](O)[C@@H](O[C@@H]2[C@@H](O)[C@H](O[C@H]3O[C@H]([C@@H](C)N)CC[C@H]3N)[C@@H](N)C[C@H]2N)OC[C@]1(C)O.CN[C@@H]1[C@@H](O)[C@@H](O[C@@H]2[C@@H](O)[C@H](O[C@H]3O[C@H]([C@@H](C)NC)CC[C@H]3N)[C@@H](N)C[C@H]2N)OC[C@]1(C)O [Gentamicine sulfate]
Return: -0.58

Enquiry: Data request, read-out LBPA endosome anti-LBPA integrated intensity (z-score), for C[N+]1([O-])[C@@H]2C[C@@H](OC(=O)[C@H](CO)c3ccccc3)C[C@H]1[C@@H]1O[C@@H]12 (some centres undefined) [Scopolamin-N-oxide hydrobromide]
Return: -0.692

Enquiry: Data request, read-out LBPA endosome anti-LBPA integrated intensity (z-score), for COc1ccc(Cc2nccc3cc(OC)c(OC)cc23)cc1OC [Papaverine hydrochloride]
Return: -0.662

Enquiry: Data request, read-out LBPA endosome anti-LBPA integrated intensity (z-score), for CN1C[C@H](C(=O)N[C@]2(C)O[C@@]3(O)[C@@H]4CCCN4C(=O)[C@H](Cc4ccccc4)N3C2=O)C[C@@H]2c3cccc4[nH]cc(c34)C[C@H]21 [Dihydroergotamine tartrate]
Return: 2.74

Enquiry: Data request, read-out LBPA endosome anti-LBPA integrated intensity (z-score), for COP(=O)(OC)C(O)C(Cl)(Cl)Cl (centres undefined) [Trichlorfon]
Return: -0.479

Enquiry: Data request, read-out LBPA endosome anti-LBPA integrated intensity (z-score), for O=P1(N(CCCl)CCCl)NCCCO1 (centres undefined) [Cyclophosphamide]
Return: -0.0725
